molecular target: Protein cereblon/Eukaryotic peptide chain release factor GTP-binding subunit ERF3A (Homo sapiens, UniProt Q96SW2+P15170); assay: Molecular glue activity at CRBN/GSPT1 in human RS4-11 cells assessed as induction of GSPT1 degradation by western blot analysis; format: cell-based
Sequence (Q96SW2 whole entry): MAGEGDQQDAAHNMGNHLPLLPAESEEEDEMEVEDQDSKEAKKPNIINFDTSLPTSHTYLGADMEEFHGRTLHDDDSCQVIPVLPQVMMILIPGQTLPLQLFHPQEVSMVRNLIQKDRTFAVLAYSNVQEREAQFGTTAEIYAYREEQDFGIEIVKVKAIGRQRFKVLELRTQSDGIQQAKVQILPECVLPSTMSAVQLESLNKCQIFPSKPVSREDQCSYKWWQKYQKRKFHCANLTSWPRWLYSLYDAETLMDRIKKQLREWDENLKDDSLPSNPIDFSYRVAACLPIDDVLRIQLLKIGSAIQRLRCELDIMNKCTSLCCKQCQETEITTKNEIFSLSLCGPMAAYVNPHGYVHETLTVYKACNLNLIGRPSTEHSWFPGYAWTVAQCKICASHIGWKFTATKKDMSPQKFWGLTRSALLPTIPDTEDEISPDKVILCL
Sequence (P15170 whole entry): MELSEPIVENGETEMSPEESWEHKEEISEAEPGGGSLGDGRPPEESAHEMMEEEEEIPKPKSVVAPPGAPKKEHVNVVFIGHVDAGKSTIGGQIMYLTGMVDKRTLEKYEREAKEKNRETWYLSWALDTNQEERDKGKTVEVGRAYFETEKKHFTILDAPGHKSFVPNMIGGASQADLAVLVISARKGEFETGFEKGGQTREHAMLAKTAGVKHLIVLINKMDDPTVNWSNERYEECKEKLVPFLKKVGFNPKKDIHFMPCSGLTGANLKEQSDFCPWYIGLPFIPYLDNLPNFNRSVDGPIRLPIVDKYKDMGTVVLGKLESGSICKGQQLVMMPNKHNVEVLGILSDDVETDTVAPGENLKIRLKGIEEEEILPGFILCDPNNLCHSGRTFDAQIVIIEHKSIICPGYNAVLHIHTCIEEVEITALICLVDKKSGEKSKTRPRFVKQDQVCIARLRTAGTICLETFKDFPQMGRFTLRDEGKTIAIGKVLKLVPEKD
readout name: DC50 (nM)

1) O=C(COc1ccccc1-c1cccc2c1CN(C1CCC(=O)NC1=O)C2=O)NCc1cn(S(=O)(=O)c2ccccc2)c2ccccc12 (stereo not given) | 166

[a] O=C(COc1ccccc1-c1cccc2c1CN(C1CCC(=O)NC1=O)C2=O)NCc1nn(Cc2ccccc2)c2ccccc12 (stereo not given)
[b] O=C(COc1ccccc1-c1cccc2c1CN(C1CCC(=O)NC1=O)C2=O)NCCc1cn(S(=O)(=O)c2ccccc2)c2ccccc12 (stereo not given)
[c] O=C(COc1ccccc1-c1cccc2c1CN(C1CCC(=O)NC1=O)C2=O)N/N=C/c1nn(Cc2ccccc2)c2ccccc12 (stereo not given)
[Q] Arrange the 3 compounds by rising DC50, starting with the smallest. Provide the labels, sequenced as the question asks.
[A] c, b, a
(c: 50 nM, b: 168 nM, a: 785 nM)
